- Protocol Description: self-splicing fitness, log relative to wild type (ln ratio); higher = more splicing; Tetrahymena group I intron in knt gene, E. coli kanamycin selection, DiMSum; sequences stand for … in CUCUCU…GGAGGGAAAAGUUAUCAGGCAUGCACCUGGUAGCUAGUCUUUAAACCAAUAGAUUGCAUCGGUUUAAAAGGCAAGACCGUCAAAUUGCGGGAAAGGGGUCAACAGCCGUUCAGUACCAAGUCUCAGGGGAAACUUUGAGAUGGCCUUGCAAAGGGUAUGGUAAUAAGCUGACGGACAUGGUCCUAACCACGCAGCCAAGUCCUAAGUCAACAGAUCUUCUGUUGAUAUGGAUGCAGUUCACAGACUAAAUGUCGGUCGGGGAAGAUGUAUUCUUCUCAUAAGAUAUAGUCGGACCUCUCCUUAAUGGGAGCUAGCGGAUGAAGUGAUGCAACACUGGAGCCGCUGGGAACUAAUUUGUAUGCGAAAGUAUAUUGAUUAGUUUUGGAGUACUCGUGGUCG;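 further: selection with 25 µg/mL kanamycin versus none on LB agar overnight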
- Assay Conditions: 30 °C
Measure: self-splicing fitness (ln)

# Polymer Sequence, self-splicing fitness (ln)
measured = [
    ("GACAAGCAAUAUUACGUUCA", -1.21),
]

Please give the measured self-splicing fitness (ln) for this sequence: CCAUAGCAAUAUUACGAUUA
-3.12

Now the sequence CCGUAGCAAUAUUACGGUCU
-3.01

Now the sequence AACCAGCAAUAUUACGCCCA
-0.618

Now the sequence GAUCAGCAAUAUUACGUCCA
-0.96

Now the sequence UCUGAGCAAUAUUACGCCAC
-2.41

Now the sequence GCUAAGCAAUAUUACGUUUU
-2

Now the sequence AAAAAGCAAUAUUACGCACA
-0.661

Now the sequence UGAGAGCAAUAUUACGCCUU
-3

Now the sequence GGCGAGCAAUAUUACGGAGU
-3.06

Now the sequence UCAUAGCAAUAUUACGUAUU
-2.48

Now the sequence GGGUAGCAAUAUUACGUCAA
-0.501

Now the sequence GCUAAGCAAUAUUACGUAGU
-4.17

Now the sequence CUAGAGCAAUAUUACGGGCC
-2.86

Now the sequence GCAUAGCAAUAUUACGUGCG
-2.26

Now the sequence ACAUAGCAAUAUUACGUGUU
-4.04

---

- Protocol Description: self-splicing fitness, log relative to wild type (ln ratio); higher = more splicing; Tetrahymena group I intron in knt gene, E. coli kanamycin selection, DiMSum; sequences stand for … in CUCUCU…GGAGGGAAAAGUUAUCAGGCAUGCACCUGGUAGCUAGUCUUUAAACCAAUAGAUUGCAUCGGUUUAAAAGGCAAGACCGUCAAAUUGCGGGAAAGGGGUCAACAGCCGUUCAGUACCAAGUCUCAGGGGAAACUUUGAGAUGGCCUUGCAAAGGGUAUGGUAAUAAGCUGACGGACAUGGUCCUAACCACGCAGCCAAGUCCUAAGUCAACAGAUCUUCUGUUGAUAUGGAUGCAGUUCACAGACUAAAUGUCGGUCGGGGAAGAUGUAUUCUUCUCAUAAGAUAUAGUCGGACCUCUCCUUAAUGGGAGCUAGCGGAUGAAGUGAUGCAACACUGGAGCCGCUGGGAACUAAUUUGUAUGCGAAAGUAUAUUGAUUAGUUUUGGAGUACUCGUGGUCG
- Assay Conditions: 37 °C
Label scheme for self-splicing fitness (ln): lower than -0.9 is condition not met, -0.9 and above is condition met.

Field: example entries. Status: answers known.
# Polymer Sequence, Assigned Class
rows = [
    ("UGGGAGCAAUAUUACGGGAC", "condition not met"),
    ("CCCCAGCAAUAUUACGCUUG", "condition not met"),
    ("CGCAAGCAAUAUUACGCUAA", "condition not met"),
    ("UGACAGCAAUAUUACGAAGC", "condition not met"),
    ("UACCAGCAAUAUUACGGCCC", "condition met"),
]

Could you verify whether the entry GGAAAGCAAUAUUACGACAC shows self-splicing fitness (ln) of no less than -0.9?
condition met

Now the sequence GUUCAGCAAUAUUACGAUUA
condition met

Now the sequence GACCAGCAAUAUUACGCCCA
condition met

Now the sequence GGUCAGCAAUAUUACGGGGU
condition met

Now the sequence GCUCAGCAAUAUUACGCCCU
condition met

Now the sequence GAGGAGCAAUAUUACGUGUC
condition not met

Now the sequence UUCCAGCAAUAUUACGUACA
condition met

Now the sequence UCGAAGCAAUAUUACGUAGA
condition met

Now the sequence CGCUAGCAAUAUUACGCGUG
condition not met

Now the sequence CUGAAGCAAUAUUACGAGUA
condition not met

Now the sequence GACGAGCAAUAUUACGAUUG
condition not met
